# Test system: UACC-257
# Experiment: NCI tumour cell line growth inhibition, 48 h
Activity calls are given as the source filed them. No stated cut-off is given here; in the data, active = GI50 up to about 1.1 µM and inactive = higher. Residues, ends and D or L forms follow the SMILES beside them. *: point of attachment. Boc = CC(C)(C)OC(=O)*; OBn = c1ccc(CO*)cc1
Recorded metric: GI50

INSERT INTO results (compound, recorded_metric, reported_value) VALUES
  ('COc1ccc2c(c1OC)C(=O)O[C@@H]2[C@H]1c2cc3c(cc2CCN1C)OCO3', 'GI50', '> 100 µM (inactive)'),
  ('CCOC1NC(=O)Oc2ccccc21 (stereo unspecified)', 'GI50', '> 100 µM (inactive)'),
  ('CN1CCN(CCNc2ccc(CO)c3sc4ccccc4c(=O)c23)CC1', 'GI50', '15.2 µM (inactive)'),
  ('CC1NOC(=O)C1/N=N/c1ccc(Cl)cc1Cl (stereo unspecified)', 'GI50', '24.5 µM (inactive)'),
  ('COC(=O)c1cc2c3c(ccc2[nH]1)N(C(=O)c1cc2cc(OC)c(OC)c(OC)c2[nH]1)CC3CCl (stereo unspecified)', 'GI50', '81.5 µM (inactive)'),
  ('O=c1c2cc([N+](=O)[O-])cnc2sn1-c1ccc(Br)cc1', 'GI50', '> 100 µM (inactive)'),
  ('O=C1NC2(CCCCCC2)C2CCCCCCC12O (stereo unspecified)', 'GI50', '> 100 µM (inactive)'),
  ('CN(C)CCCn1c(Cn2nc3ccccc3n2)nc2cc(C(F)(F)F)ccc21', 'GI50', '16.8 µM (inactive)'),
  ('CCCCCCCCCCCCCCCCCc1cccc(OCOCCOC)c1CO', 'GI50', '> 100 µM (inactive)'),
  ('CC(C)(CCC(C)(C)c1ccccc1)c1ccccc1', 'GI50', '14.3 µM (inactive)'),
  ('C=CCC1C(=O)Nc2cccc3ncn(c23)C1=O (stereo unspecified)', 'GI50', '> 100 µM (inactive)'),
  ('C[C@@H]1[C@@H](c2ccccc2)O[B-](c2ccccc2)(c2ccccc2)N1C', 'GI50', '50.6 µM (inactive)'),
  ('CN(C)CCCSc1c2ccccc2nc2cc(NCC(=O)Nc3ccccc3-c3ccccc3NC(=O)CNc3ccc4c(SCCCN(C)C)c5ccccc5nc4c3)ccc12', 'GI50', '> 100 µM (inactive)'),
  ('COc1ccc(-c2cc(Cc3cccs3)c(=O)[nH]n2)cc1', 'GI50', '42.3 µM (inactive)'),
  ('CC12OC3(O)C4C5CC(C6C5C3C61)C42 (stereo unspecified)', 'GI50', '> 100 µM (inactive)'),
  ('Cn1c2c([N+](=O)[O-])[se]nc2c(=O)n1-c1ccc([N+](=O)[O-])cc1', 'GI50', '1.96 µM (inactive)'),
  ('O=[N+]([O-])/C(C(Cl)=C(Cl)Cl)=C(\N1CCCCC1)n1cncn1', 'GI50', '17.5 µM (inactive)'),
  ('CC(=O)Nc1ccc(S(=O)(=O)N/N=C/CN2C(=O)c3ccccc3C2=O)cc1', 'GI50', '> 100 µM (inactive)'),
  ('Cn1c(=O)nc2n(-c3ccc(F)cc3)c3ccccc3nc-2c1=O', 'GI50', '14.4 µM (inactive)'),
  ('CC(C)CC(NC(=O)OC(C)(C)C)C(=O)NC(CC(=O)OCc1ccccc1)C(=O)OCc1ccccc1 (stereo not drawn) (Boc-Leu-Asp(OBn)-OBn; configuration not given here)', 'GI50', '32.9 µM (inactive)'),
  ('CCOC(=O)c1cc(=O)c2ccnc3c2n1CCS3', 'GI50', '51.6 µM (inactive)');

Origin of measurements: ChEMBL document CHEMBL1201862
